Attribution: patent US20250034275A1

TEST TARGET: T1, human Trop-2 (on the surface of human cell lines) (human, UniProt P09758 27-323)
T1 sequence: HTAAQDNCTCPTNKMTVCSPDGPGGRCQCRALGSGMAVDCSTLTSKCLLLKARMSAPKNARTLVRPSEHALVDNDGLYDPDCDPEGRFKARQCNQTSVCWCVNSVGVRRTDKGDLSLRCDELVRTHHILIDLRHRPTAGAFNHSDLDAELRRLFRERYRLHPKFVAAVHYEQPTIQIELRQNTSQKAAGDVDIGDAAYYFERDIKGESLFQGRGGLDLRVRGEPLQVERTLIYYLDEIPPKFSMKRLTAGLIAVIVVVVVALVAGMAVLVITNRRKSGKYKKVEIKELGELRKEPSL
ASSAY INFO: cell-based or functional assay
MEASUREMENT LABEL: ADCC reporter (Jurkat-CD16a v158-NFAT-luciferase), target cell H322, EC50 (nM)
Enter your answer as a number in nM; do not include the unit.

- BINDER: "ch-Ab2 (antibody, human IgG1, kappa, V domains shown, also called chimeric antibody of Ab2) VH: EVQLVESGPGLVAPSQSLSITCTVSGFSLTYYGIDWVRQPPGKGLEWLGVIWGSGNTKYNSALMSRLSISKDNSKSQVFLRMNSLQSDDTAIYYCARFYEGFAYWGQGTLVTVSA VL: AIVLTQSPSSMYASLGERVTITCKASQDINSYLSWFQQKPGKSPKTLIYRANRLVDGVPSRFSGSGSGQDYSLTISSLEYEDMGIYYCLQYDEFPLTFGVGTKLELKR"
  REPORTED MEASUREMENT: 0.17

Give the measured ADCC reporter (Jurkat-CD16a v158-NFAT-luciferase), target cell H322, EC50 for hz-Ab2-1.1 (antibody, human IgG1, kappa, V domains shown, Humanized antibody) VH: EVQLVESGGGLIQPGGSLRLSCAVSGFSLTYYGIDWVRQPPGKGLEWVSVIWGSGNTKYNSALKSRLTISRDNSKSTLYLQMNSLRAEDTAVYYCARFYEGFAYWGQGTLVTVSS VL: DIQMTQSPSSLSASVGDRVTITCKASQDINSYLSWFQQKPGKAPKTLIYRANRLVEGVPSRFSGSGSGQDYTLTISSLQPEDFATYYCLQYDEFPLTFGQGTKVEIKR
1.45
